These data points were gathered from patent US11767341B2.

Provide the recorded MIC for the entries that follow.
System: S. pneumoniae ATCC 49619
test_details: MIC determination
Type: cell-based
condition_info: Streptococcus pneumoniae, ATCC49619; S. pneumoniae ATCC 49619; read-out: MIC

Give reported MIC for COc1ccc(C2=C[C@H]3CN[C@H](C(=O)N[C@H]([C@H](C)Cl)[C@H]4OC(SC)[C@H](O)[C@H](O)C4O)[C@@H]3OCC2)cc1 (some centres unmarked) (S. pneumoniae ATCC 49619) ≤ 0.12 µg/mL

Provide MIC, tested on S. pneumoniae ATCC 49619, for CSC1O[C@H]([C@H](NC(=O)[C@H]2NC[C@@H]3CC=CCO[C@H]32)[C@H](C)Sc2ccc(-c3cncnc3)cc2)C(O)[C@@H](O)[C@H]1O (some centres unmarked) . ≤ 0.06 µg/mL

Give MIC only, for COc1ccc(C2=CCO[C@@H]3[C@H](CN[C@@H]3C(=O)N[C@H]([C@H](C)Cl)[C@H]3OC(SC)[C@H](O)[C@H](O)C3O)C2)cc1 (some centres unmarked) , using S. pneumoniae ATCC 49619 data. ≤ 0.06 µg/mL

State the measured MIC (S. pneumoniae ATCC 49619) of CSC1O[C@H]([C@H](NC(=O)[C@@H]2[C@@H]3OCC=CC[C@H]3CN2C)[C@H](C)Sc2ccc(-c3cccnc3)cc2)C(O)[C@@H](O)[C@H]1O (some centres unmarked) ≤ 0.125 µg/mL

State MIC (S. pneumoniae ATCC 49619) of C=CC1=CCO[C@@H]2[C@H](CN[C@@H]2C(=O)N[C@H]([C@H](C)Cl)[C@H]2OC(SC)[C@H](O)[C@H](O)C2O)C1 (some centres unmarked) . ≤ 0.03 µg/mL
